B1: POU domain, class 2, transcription factor 3, residues 186 to 260; numbered along this chain, Q9UKI9 (parent)
chain: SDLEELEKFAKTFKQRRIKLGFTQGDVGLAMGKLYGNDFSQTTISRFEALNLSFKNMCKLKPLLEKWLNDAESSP

Variants of: B1
Protocol Description: abundance fitness (aPCA) (normalised: wild type 0, dead -1); higher = more abundant; growth selection in yeast, the domain comes from the species named
Cond: Homo sapiens
Experimental Readout: abundance fitness
Give bare numbers.

# example entries with known answers
residue_change=C58V measured=-0.019
residue_change=K59F measured=0.06
residue_change=K61T measured=-0.254
residue_change=E65K measured=0.042
residue_change=L50D measured=-0.204

Give me abundance fitness for each of these variants, listed below.
1. A71D
2. K66C

[reply]
-0.322
-0.063

Give me abundance fitness for each of these variants, listed below.
1. N56R
2. D70M
3. A49L
4. N37R

[reply]
1. 0.009
2. -0.103
3. -0.197
4. 0.027
